- protocol: Carotenoid content of Lycopene Suspension-supplemented diets after 7 months storage
- Type: physicochemical
- measurement_context: Diet 5, 0.10 mM/kg diet, stored at −20 °C for 7 months
Please respond with reported Carotenoid content of diet for every item in the list.

Recorded Carotenoid content of diet, per entry:
molecule_smiles: CC(C)=CCC/C(C)=C/C=C/C(C)=C/C=C/C(C)=C/C=C/C=C(C)/C=C/C=C(C)/C=C/C=C(\C)CCC=C(C)C
result: 22 μg/gm (ppm)
//
molecule_smiles: CC(C)=CCC/C(C)=C/CC/C(C)=C/CC/C(C)=C/C=C/C=C(\C)CC/C=C(\C)CC/C=C(\C)CCC=C(C)C
result: 1 μg/gm (ppm)

Consider the record given below.
Look up Carotenoid content of diet for this molecule: CC(C)=CCC/C(C)=C/CC/C(C)=C/C=C/C(C)=C/C=C/C=C(C)/C=C/C=C(\C)CC/C=C(\C)CCC=C(C)C
0 μg/gm (ppm)
